Data provenance: patent US20250115597A1

Kindly supply the reported JAK1/TYK2 selectivity values for the records listed here.
Molecular target: TYK2-JH2 domain (Homo sapiens)
Construct: IC50 on JH2 domain activity (nM)
Sequence (P29597 589-875 limits assumed): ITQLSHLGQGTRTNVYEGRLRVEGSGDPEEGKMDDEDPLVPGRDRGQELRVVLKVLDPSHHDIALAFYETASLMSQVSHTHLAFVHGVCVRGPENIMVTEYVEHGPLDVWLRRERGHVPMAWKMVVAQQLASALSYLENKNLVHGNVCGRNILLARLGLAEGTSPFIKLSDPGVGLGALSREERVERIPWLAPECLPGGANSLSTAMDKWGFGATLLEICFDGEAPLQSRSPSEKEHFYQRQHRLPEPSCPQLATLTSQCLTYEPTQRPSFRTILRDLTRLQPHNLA
Experiment: Binding activity test for JH2 domain of TYK2 (Tb-antibody/tracer FRET)
Conditions: ratio JAK1-JH2 IC50 / TYK2-JH2 IC50
One number for each entry.

Solved entries:
molecule: [2H]C([2H])([2H])NC(=O)c1cnc(NC(=O)[C@@H]2C[C@H]2F)cc1Nc1ccc2cnn(CC)c2c1OC (relative stereo) [Example 241]
reported_endpoint: JAK1/TYK2 selectivity
measurement: 28.7
//
molecule: [2H]C([2H])([2H])NC(=O)c1cnc(Nc2ccc(F)cn2)cc1Nc1ccn2ncc(C#N)c2c1OC [Example 257]
reported_endpoint: JAK1/TYK2 selectivity
measurement: 23.5
//
molecule: [2H]C([2H])([2H])NC(=O)c1cnc(NC(=O)C2CC2)cc1Nc1ccn2ncc(C(C)C(N)=O)c2c1OC (stereo not shown) [Example 252]
reported_endpoint: JAK1/TYK2 selectivity
measurement: 125.69

Please supply JAK1/TYK2 selectivity for each of the following items, keeping them in order.
1. [2H]C([2H])([2H])NC(=O)c1cnc(NC(=O)C2CC2)cc1Nc1ccn2ncc(C3CC3)c2c1OC [Example 250]
2. [2H]C([2H])([2H])NC(=O)c1cnc(NC(=O)C2CC2)cc1Nc1cn(CC(F)(F)F)c2ccn(CC)c(=O)c12 [Example 209]
3. [2H]C([2H])([2H])NC(=O)c1cnc(NC(=O)C2CC2)cc1Nc1ccn2ncc(COC)c2c1OC [Example 226]
4. [2H]C([2H])([2H])NC(=O)c1cnc(NC(=O)C2CC2)cc1Nc1ccn2ncc(C)c2c1OC [Example 169]

[A]
30.19
70.8
38.8
28.3

* * *

Target: Ba/F3-FL-TYK2-P760L cells (Homo sapiens, UniProt P29597, P760L, cells depend on it)
Construct: BaF3-FL-T2P760L (nM)
Sequence (P29597 whole entry P760L): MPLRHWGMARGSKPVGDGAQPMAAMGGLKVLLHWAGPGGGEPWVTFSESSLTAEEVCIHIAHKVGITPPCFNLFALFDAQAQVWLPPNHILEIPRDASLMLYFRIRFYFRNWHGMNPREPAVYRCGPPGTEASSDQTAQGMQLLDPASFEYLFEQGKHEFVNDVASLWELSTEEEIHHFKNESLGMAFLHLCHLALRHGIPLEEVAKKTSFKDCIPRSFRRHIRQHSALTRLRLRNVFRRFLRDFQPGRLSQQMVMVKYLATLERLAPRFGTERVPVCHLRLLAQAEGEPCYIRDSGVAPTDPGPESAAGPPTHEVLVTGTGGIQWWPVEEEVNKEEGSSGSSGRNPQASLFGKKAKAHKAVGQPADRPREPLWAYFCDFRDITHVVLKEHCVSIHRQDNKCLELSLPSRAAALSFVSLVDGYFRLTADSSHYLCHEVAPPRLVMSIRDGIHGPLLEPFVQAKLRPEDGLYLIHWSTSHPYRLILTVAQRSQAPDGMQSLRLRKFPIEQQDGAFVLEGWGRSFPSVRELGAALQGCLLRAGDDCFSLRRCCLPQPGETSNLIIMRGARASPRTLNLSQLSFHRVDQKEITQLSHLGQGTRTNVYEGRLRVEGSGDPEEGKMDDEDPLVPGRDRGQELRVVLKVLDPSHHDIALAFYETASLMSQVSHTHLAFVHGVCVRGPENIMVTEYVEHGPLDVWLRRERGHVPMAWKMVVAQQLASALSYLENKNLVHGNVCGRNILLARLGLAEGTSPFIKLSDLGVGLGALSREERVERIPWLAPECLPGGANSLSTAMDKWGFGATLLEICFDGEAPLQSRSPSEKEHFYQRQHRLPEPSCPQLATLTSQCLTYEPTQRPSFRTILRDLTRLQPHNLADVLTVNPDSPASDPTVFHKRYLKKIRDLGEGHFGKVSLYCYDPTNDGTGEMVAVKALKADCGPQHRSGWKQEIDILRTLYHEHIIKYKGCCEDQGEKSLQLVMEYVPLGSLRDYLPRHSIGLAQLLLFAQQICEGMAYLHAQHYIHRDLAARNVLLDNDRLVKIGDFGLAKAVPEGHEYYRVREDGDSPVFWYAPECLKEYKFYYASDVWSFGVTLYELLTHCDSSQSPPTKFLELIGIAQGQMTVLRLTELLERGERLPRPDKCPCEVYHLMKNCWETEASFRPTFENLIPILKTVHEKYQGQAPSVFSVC
Assay: Anti-proliferative assay, Ba/F3-FL-TYK2-P760L cells (Cell-Titer Glo)
Assay type: cell-based
Conditions: 72 h, read-out: BaF3-FL-T2P760L IC50
Mark YES for GI50 under 200 nM, NO if at or over.

Would you please look over these solved cases?
mol: C=CCn1cc(Nc2cc(NC(=O)C3CC3)ncc2C(=O)NC)c2c(=O)n(CC)ccc21
discrete_label: YES

mol: CNC(=O)c1cnc(Nc2ccc(F)cc2)nc1Nc1coc2ccn(C)c(=O)c12
discrete_label: NO

mol: CCn1ccc2c(c(Nc3cc(NC(=O)C4CC4)ncc3C(=O)NC)cn2C2CC2)c1=O
discrete_label: YES

mol: [2H]C([2H])([2H])NC(=O)c1cnc(Nc2ccc(F)cn2)cc1Nc1cn(C)c2c(Cl)cn(CC)c(=O)c12
discrete_label: YES

mol: CNC(=O)c1cnc(Nc2ccc(F)cn2)cc1Nc1cn(C)c2ccn(C)c(=O)c12
discrete_label: YES

Next:
[Q] Please check: GI50 for [2H]C([2H])([2H])NC(=O)c1cnc(NC(=O)C2CC2)cc1Nc1ccc2onc(CC)c2c1OC , strictly under 200 nM or not?
[A] NO

* * *

Experiment: Microsomal metabolic stability assay
Assay type: in vitro ADME
Settings: pH 7.4; dog liver microsomes, 0.5 mg/mL protein, 1 μM compound; read-out: Dog LM Clint
Would you mind telling me the reported microsomal CLint at 1 μM of each entry?

Consider the following items and state reported microsomal CLint at 1 μM for each.
1. [2H]C([2H])([2H])NC(=O)c1cnc(NC(=O)C2CC2)cc1Nc1csc2cnn(CC3CC3(F)F)c(=O)c12 (stereo not shown) [Example 191]
2. [2H]C([2H])([2H])NC(=O)c1cnc(NC(=O)C2CC2)cc1Nc1cn(C)c2ccn(CC)c(=O)c12 [Example 100]
3. CNC(=O)c1nnc2cc1Nc1cc(cc(-c3ncn(C)n3)c1OC)COCc1cccc(n1)N2 [Example 35]
4. [2H]C([2H])([2H])NC(=O)c1cnc(NC(=O)C2CC2)cc1Nc1csc2cnn(C(C)C(F)(F)F)c(=O)c12 (stereo not shown) [Example 185]
5. [2H]C([2H])([2H])NC(=O)c1cnc(Nc2cccc(C#N)n2)cc1Nc1cn(C)c2c(Cl)cn(CC)c(=O)c12 [Example 163]

[A]
1. < 11.5 µL/min/mg
2. < 18.6 µL/min/mg
3. < 18.6 µL/min/mg
4. < 11.5 µL/min/mg
5. 12.1 µL/min/mg

Items follow; give microsomal CLint at 1 μM for each.
1. [2H]C([2H])([2H])NC(=O)c1nnc2cc1Nc1cc(cc(-c3ncn(C)n3)c1OC)COCc1cccc(n1)N2 [Example 68]
2. [2H]C([2H])([2H])NC(=O)c1cnc(NC(=O)C2CC2)cc1Nc1ccc2nnc(CC)n2c1OC [Example 58]

[A]
["11.4 µL/min/mg", "< 11.5 µL/min/mg"]
